The reported measurements were obtained from PubChem BioAssay AID2060610.

tested on: 616215-338-R-J1-PDC complex spheroids, viability % test/control; test: Anticancer human tumor 616215-338-R-J1-PDC patient-derived colon adenocarcinoma cell line growth inhibition [CLK]; conditions: second compound 1 µM; first compound 0.003 µM; active = viability on the fitted dose curve at most 10% of control; inactive = the rest;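 also: spheroids exposed to agents for 7 days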
Classes used: TRUE (active), FALSE (inactive)

C=CC(=O)Nc1cc(Nc2nccc(-c3cn(C)c4ccccc34)n2)c(OC)cc1N(C)CCN(C)C + CNC(=O)c1ccc(Nc2nc(OC3CCCC3)c3c(-c4ccc5nc(C)oc5c4)c[nH]c3n2)c(OC)c1; FALSE
C=CC(=O)Nc1cc(Nc2nccc(-c3cn(C)c4ccccc34)n2)c(OC)cc1N(C)CCN(C)C + CN1CCN(c2cc(C(=O)Nc3cc4cc(-c5cnn(C)c5)ccc4cn3)ccn2)CC1; TRUE
CC(C)CC(NC(=O)C(Cc1ccccc1)NC(=O)c1cnccn1)B(O)O (centres undefined) + CN1CCN(c2cc(C(=O)Nc3cc4cc(-c5cnn(C)c5)ccc4cn3)ccn2)CC1; TRUE
CC(C)CC(NC(=O)C(Cc1ccccc1)NC(=O)c1cnccn1)B(O)O (centres undefined) + CNC(=O)c1ccc(Nc2nc(OC3CCCC3)c3c(-c4ccc5nc(C)oc5c4)c[nH]c3n2)c(OC)c1; FALSE
